meta.source: paper PMC9182405

molecular target: porcine pancreatic lipase (PPL) (Sus scrofa, UniProt P00591); construct: gene PNLIP; assay: p-nitrophenol ester hydrolysis assay, absorbance at […] nm, free PPL; in ligand fishing some nonspecific adsorption to blank MMOF; format: biochemical
Sequence (P00591 whole entry): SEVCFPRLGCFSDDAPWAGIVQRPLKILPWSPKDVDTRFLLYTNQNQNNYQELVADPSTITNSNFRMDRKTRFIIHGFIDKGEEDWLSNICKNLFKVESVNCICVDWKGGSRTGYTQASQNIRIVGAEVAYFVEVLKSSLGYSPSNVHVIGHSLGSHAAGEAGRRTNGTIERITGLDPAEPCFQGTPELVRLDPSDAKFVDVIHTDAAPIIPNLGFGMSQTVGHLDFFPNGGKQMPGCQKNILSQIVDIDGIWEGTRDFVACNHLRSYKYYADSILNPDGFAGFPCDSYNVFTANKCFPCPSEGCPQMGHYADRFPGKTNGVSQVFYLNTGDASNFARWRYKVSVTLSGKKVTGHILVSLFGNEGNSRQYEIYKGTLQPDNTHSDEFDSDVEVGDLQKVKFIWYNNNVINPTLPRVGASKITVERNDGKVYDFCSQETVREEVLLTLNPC
REPORTED PROPERTY: pIC50
In simple prose, pIC50 is minus the logarithm base ten of a concentration in moles per litre.

q: Identify the reported pIC50 for the following entry. COc1c(O)cc(O)c2c(=O)cc(-c3ccccc3)oc12 [compound 7, Wogonin]
a: 3.77
